target: T1, human CXCR6 (human, UniProt O00574 1-342); assay: screening on cells overexpressing CXCR6, one single concentration, yes/no
T1 construct: also called hu-CXCR6; wild type human CXCR6
T1 sequence (O00574 whole entry): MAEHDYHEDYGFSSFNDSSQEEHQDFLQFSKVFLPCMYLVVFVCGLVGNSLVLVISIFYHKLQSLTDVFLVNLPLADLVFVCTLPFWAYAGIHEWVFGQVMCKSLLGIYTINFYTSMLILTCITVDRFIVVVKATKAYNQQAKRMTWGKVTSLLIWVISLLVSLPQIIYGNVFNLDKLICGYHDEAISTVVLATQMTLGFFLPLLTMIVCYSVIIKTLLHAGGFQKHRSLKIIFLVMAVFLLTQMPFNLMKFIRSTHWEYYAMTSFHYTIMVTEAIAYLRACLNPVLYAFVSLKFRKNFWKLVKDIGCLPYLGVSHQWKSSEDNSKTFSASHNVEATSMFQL
Measured metric: binding result

1. Beacon2-A3 (antibody, V domains shown, Mouse-derived; tested at the screening stage) VH: EVQIVESGGGLVQPKGSLKLSCAASGFSFNTYAMNWVRQAPGKGLEWVARIRTKRNNYVKFYADSVKDRFTISRDDSESMLYLQMNILKTEDTAMYYCVRQGAYWGQGTLVTVSA VL: DVVLTQTPLSLPVNIGDQASISCKSTKSLLNSDGFTYLDWYLQKPGQSPQLLIYLVSNRFSGVPDRFSGSGSGTDFTLKISRVEAEDLGVYFCFQSNYLPYTFGGGTKLEIK: binds
2. COXs-1B10 (antibody, V domains shown, Mouse antibody) VH: QVTLKESGPGILKASQTLSLTCSFSGFSLSTSGMGIGWIRQPSGKGPEWLAHIWWDDEKYYRPSLKSRLTVSKDTSRNQVFLNITSVDTTDSASYYCVQRTPGRFAYWGQGTLVTVST VL: DIVMTQSPSSLAVSIGQKVIMSCKSSQSLLSSRTQKNYLAWYQQKPGQSPKLLVYFASIRESGVPDRFTGSGSGTDFTLTISTVQAEDLAVYYCQQYFLTPYTFGGGTKLEIK: binds
3. COXs-2D2 (antibody, V domains shown, Mouse-derived) VH: EVQLVESGGGLVQPKGSLKLSCTASGFSFDTYAMNWVRQAPGKGLEWIARIRSKSKNYATYYADSVKDRFTISRDDSANILYLQMNNLKTEDTAIYYCLRQGSFDYWGQGTTLTVSS VL: DVVLTQTPLSLPVSLGDQASISCRSGQRIVHTDGNTYLYWYLQKPGQSPKLLIYRVSNRFSGVPDRFSGSGSGTDFTLKISRVEAEDMGIYYCFQGTHFPYTFGGGTKLEIK: binds
